Entry source: patent US20240150330A1

Molecular target: TAAR1 receptor (UniProt Q96RJ0)
Sequence (Q96RJ0 1-339): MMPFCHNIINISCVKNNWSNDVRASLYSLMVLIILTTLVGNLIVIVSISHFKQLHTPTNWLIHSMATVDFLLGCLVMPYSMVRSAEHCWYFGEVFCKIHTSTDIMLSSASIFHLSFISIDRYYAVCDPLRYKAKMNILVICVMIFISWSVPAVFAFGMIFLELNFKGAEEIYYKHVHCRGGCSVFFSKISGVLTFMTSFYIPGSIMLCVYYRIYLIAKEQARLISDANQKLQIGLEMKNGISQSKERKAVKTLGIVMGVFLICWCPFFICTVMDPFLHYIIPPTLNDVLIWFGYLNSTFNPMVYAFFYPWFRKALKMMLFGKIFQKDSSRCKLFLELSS
Assay: TAAR1 Agonist cAMP Assay
Conditions: CHO-K1 cells expressing TAAR1; cAMP HTRF; 30 minutes at room temperature
OUTCOME_MEASURE: EC50

Query: Name the reported EC50 value associated with the compound NC[C@@H]1CCOc2c(-c3cncnc3)cccc21 [Compound 31]
Reply: 1 to 10 nM

Query: Next entry: CNC[C@@H]1CCOc2c(-c3cnc[nH]3)cccc21 [Compound 45]
Reply: 1 to 10 nM

Query: Next entry: Cc1ccc(-c2cccc3c2OCC[C@H]3CN)cn1 [Compound 13]
Reply: 0.1 to 1 nM

Query: Next entry: CNC[C@@H]1CCOc2c(-c3cncn3C)cccc21 [Compound 37]
Reply: 10 to 100 nM

Query: Next entry: Cc1ncccc1-c1cccc2c1OCC[C@H]2CN [Compound 27]
Reply: 10 to 100 nM

Query: Next entry: CNC[C@@H]1CCOc2c(-c3ccncc3)cccc21 [Compound 3]
Reply: 10 to 100 nM

Query: Next entry: CNC[C@@H]1CCOc2c(-c3cnn(C)c3)cccc21 [Compound 54]
Reply: 1 to 10 nM

Query: Next entry: CNC[C@@H]1CCOc2c(-c3cnccn3)cccc21 [Compound 35]
Reply: 10 to 100 nM

Query: Next entry: NC[C@@H]1CCOc2c(-c3ccnnc3)cccc21 [Compound 40]
Reply: 1 to 10 nM

Query: Next entry: CNC[C@H]1CCOc2c(-c3cccnc3)cccc21 [Compound 25]
Reply: 10 to 100 nM

Query: Next entry: CNC[C@@H]1CCOc2c(-c3ccncc3OC)cccc21 [Compound 12]
Reply: 100 to 1000 nM

Query: Next entry: Cc1cc(-c2cccc3c2OCC[C@@H]3CN)ccn1 [Compound 15]
Reply: 1 to 10 nM

Query: Next entry: Cc1cc(C)c(-c2cccc3c2OCC[C@H]3CN)cn1 [Compound 29]
Reply: 1 to 10 nM

Query: Next entry: CNC[C@@H]1CCOc2c(-c3cncnc3)cccc21 [Compound 32]
Reply: 1 to 10 nM

Query: Next entry: CNC[C@@H]1CCOc2c(-c3cscn3)cccc21 [Compound 50]
Reply: 1 to 10 nM

Query: Next entry: CNC[C@@H]1CCOc2c(-c3cccnc3C)cccc21 [Compound 28]
Reply: 10 to 100 nM

Query: Next entry: NC[C@@H]1CCOc2c(-c3cnc[nH]3)cccc21 [Compound 44]
Reply: 1 to 10 nM

Query: Next entry: CNC[C@H]1CCOc2c(-c3ccncc3)cccc21 [Compound 4]
Reply: 100 to 1000 nM

Query: Next entry: CNC[C@@H]1CCOc2c(-c3ccnnc3)cccc21 [Compound 41]
Reply: 10 to 100 nM

Query: Next entry: Cc1cc(-c2cccc3c2OCC[C@H]3CN)ccn1 [Compound 17]
Reply: 1 to 10 nM

Query: Next entry: CNC[C@@H]1CCOc2c(-c3cncs3)cccc21 [Compound 39]
Reply: 1 to 10 nM

Query: Next entry: NC[C@@H]1CCOc2c(-c3ccnc(C(F)(F)F)c3)cccc21 [Compound 9]
Reply: 0.1 to 1 nM

Query: Next entry: Cc1cc(-c2cccc3c2OCC[C@H]3CN)c(C)cn1 [Compound 19]
Reply: 1 to 10 nM

Query: Next entry: CNC[C@@H]1CCOc2c(-c3ccc(C(F)(F)F)nc3)cccc21 [Compound 8]
Reply: 10 to 100 nM
